method.notes: inhibitors of the yeast RAM network, pilot screen, dse1pr::URA3 reporter, 5-FOA selection (AID 869);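 also: 0% = DMSO wells with no growth and 100% = 10 µM 1-NA-PP1 with full growth; RAM network block rescues cells from 5-FOA so hits raise OD615 growth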
reported.conditions: S. cerevisiae dse1pr::URA3 5-FOA growth, OD615, 2 d; at 10 µM; active compounds read high; strain carries analog-sensitive mutant Cbk1 kinase
# inhibition listing for each entry below
Number in %, nothing else.

Observe how each entry below is paired with its result.
O=C(CSc1ncnc2nc[nH]c12)N1CCOCC1	-0.435
C=CCn1c(SCc2ccc(F)cc2)nc2c1c(=O)[nH]c(=O)n2C	0.25
COc1ccccc1NC(=O)c1ccc(S(=O)(=O)N(C)C)cc1	2.33
COc1ccc(-c2[nH]ncc2-c2cnc(C)s2)c(O)c1	2
COc1cc(C(=O)NCC(c2cccnc2)N2CCN(c3ccccc3)CC2)cc(OC)c1OC (stereo not drawn)	2.09

If you can, please state the reported inhibition value of `CCN(c1cccc(C)c1)c1ncnc2nc[nH]c12` . 0.95

If you can, please state the reported inhibition value of `COc1ccc(C(=O)N2CCN(c3ccc(C)cc3C)CC2)cc1OC` . 1.66
